Data credit: ChEMBL document CHEMBL2073937

Target: ATP-dependent translocase ABCB1 (Homo sapiens, UniProt P08183)
Sequence (P08183 whole entry): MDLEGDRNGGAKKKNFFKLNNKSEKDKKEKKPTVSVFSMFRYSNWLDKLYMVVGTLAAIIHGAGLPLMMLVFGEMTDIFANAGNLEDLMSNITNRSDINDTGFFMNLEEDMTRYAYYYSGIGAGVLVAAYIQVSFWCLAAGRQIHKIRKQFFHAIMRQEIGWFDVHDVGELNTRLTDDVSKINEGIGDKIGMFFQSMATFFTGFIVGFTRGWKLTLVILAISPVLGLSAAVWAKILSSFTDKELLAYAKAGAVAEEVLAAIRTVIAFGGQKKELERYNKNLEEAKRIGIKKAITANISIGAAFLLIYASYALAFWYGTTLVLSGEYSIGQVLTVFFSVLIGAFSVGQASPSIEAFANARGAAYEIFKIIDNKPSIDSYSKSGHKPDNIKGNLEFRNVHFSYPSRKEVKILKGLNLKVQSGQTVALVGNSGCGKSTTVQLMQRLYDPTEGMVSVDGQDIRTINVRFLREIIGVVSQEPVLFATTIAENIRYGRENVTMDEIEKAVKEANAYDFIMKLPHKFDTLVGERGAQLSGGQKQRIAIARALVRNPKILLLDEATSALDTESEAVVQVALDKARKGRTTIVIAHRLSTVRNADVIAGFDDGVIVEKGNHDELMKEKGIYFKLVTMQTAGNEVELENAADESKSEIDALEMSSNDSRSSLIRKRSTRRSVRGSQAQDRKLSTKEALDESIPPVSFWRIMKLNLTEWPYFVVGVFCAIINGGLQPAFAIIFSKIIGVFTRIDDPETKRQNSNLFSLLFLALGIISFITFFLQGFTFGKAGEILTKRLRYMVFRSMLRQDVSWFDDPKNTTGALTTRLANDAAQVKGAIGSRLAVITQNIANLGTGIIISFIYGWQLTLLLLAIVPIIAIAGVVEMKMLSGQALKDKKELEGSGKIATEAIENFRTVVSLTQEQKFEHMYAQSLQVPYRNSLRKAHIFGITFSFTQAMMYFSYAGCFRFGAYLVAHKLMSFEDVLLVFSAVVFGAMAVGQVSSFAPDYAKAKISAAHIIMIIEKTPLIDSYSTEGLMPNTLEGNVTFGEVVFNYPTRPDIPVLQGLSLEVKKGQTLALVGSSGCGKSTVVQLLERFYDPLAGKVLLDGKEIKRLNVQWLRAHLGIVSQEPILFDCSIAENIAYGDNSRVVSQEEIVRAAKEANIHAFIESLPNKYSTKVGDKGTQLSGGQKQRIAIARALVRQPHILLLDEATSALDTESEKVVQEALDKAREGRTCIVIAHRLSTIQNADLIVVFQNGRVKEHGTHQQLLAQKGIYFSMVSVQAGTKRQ
Test: TP_TRANSPORTER: transepithelial transport (basal to apical) in MDR1-expressing LLC-PK1 cells
Type: functional, cell-based
Details: pig
readout.label: Activity

Examples with their reported Activity follow.
Sample CN1C(=O)CN=C(c2ccccc2)c2cc(Cl)ccc21 ; Activity observed: is not a substrate [-]

Sample N#Cc1ccc(Cn2cncc2CN2CCN(c3cccc(Cl)c3)C(=O)C2)cc1 [L-778123 FREE BASE] ; Activity observed: substrate [+]

Sample CC(=O)[C@H]1CC[C@H]2[C@@H]3CCC4=CC(=O)CC[C@]4(C)[C@H]3CC[C@]12C ; Activity observed: substrate [+]

Sample CC[C@H](C)C[C@H](C)CCCCCCCCC(=O)N[C@H]1C[C@@H](O)[C@@H](NCCN)NC(=O)[C@@H]2[C@@H](O)CCN2C(=O)[C@H]([C@H](O)CCN)NC(=O)[C@H]([C@H](O)[C@@H](O)c2ccc(O)cc2)NC(=O)[C@@H]2C[C@@H](O)CN2C(=O)[C@H]([C@@H](C)O)NC1=O ; Activity observed: is not a substrate [-]

Sample C[C@H](N)c1ccc(N2CCC(c3nc(-c4cccc(C(F)(F)F)c4)c(-c4ccncc4)n3C)CC2)cc1.[O-][Cl+3]([O-])([O-])O ; Activity observed: substrate [+]

Sample Cc1nc(N)ccc1CNC(=O)Cn1c(C)cnc(NCCc2ccccc2)c1=O.Cl.Cl.O ; Activity observed: substrate [+]

Sample CN1C(=O)C(NC(=O)c2cc3ccccc3[nH]2)N=C(c2ccccc2)c2ccccc21 (racemic) ; Activity observed: is not a substrate [-]

Sample Cc1cccc(NC(=O)NC2N=C(c3ccccc3)c3ccccc3N(C)C2=O)c1 (centres undefined) ; Activity observed: substrate [+]

More entries:
Sample C[C@@H](O)[C@H]1C(=O)N2C(C(=O)[O-])=C(S[C@@H]3CN[C@H](C(=O)Nc4cccc(C(=O)O)c4)C3)[C@H](C)[C@H]12.O.[Na+] ; Activity observed: is not a substrate [-]
